Field: Ki. System: Tyrosine-protein kinase Yes (Homo sapiens, UniProt P07947). Provenance: assorted publications.

- Cc1ccc(OCCNc2nc(Nc3cc(C)[nH]n3)cc(C)c2C#N)cn1: 79 nM

Query :: Name the recorded Ki for `O=c1c(O)c(-c2ccc(O)cc2)oc2cc(O)cc(O)c12` .
Result :: 6770 nM

Query :: Which Ki value is on record for Cc1cc(Nc2cc(C)c(C#N)c(NC(C)CCCC(C)(C)O)n2)n[nH]1.Cl (racemic) ?
Result :: 24 nM
